# System: MS2 coat protein
# protocol details: apparent KD of MS2 coat protein; higher = weaker reporter binding
# test parameters: Eterna round: R107; input ligand: theophylline 20 uM
reported property: apparent KD of MS2 coat protein
Hi, when you answer, please include the unit after the number. Thanks!

{"columns": ["sequence record", "apparent KD of MS2 coat protein"],
 "data": [
  ["CAAUUUAUAUGAAGGAGCGUCGAAAAUGGGUAAACAUGAGGAUCACCCAUGUAAAGGGAACGACAGGUAGGUCGCAUAUGGAUUG [AstromonsSSArgB#10]", "234 nM"],
  ["AAACAUGAGGAUCACCCAUGUAUACUUAGACGAGGACCGGUACGGCCGCCACUCGAACUUCAAGAUUUGGCGGAUAAUGUAUGUA [JR_Nu22_ExcTryptoA_Sub023]", "16.1 nM"]
]}

Now for the sequence whose apparent KD of MS2 coat protein we want.
// sample CGCAACCCACAUGAGGAUCACCCAUGUGAAGGAGCGCCGAAUAAGGCAGGUAGGUCGCGCAUGAAUAAAUCAUGUAGGAAGCGAA [XArg-A 6 V1&2] , its apparent KD of MS2 coat protein was 32.6 nM

---

# Test system: MS2 coat protein
# protocol details: apparent KD of MS2 coat protein; designed switch direction (-1 OFF switch, 1 ON switch): -1; higher = weaker reporter binding
# test parameters: input ligand: FMN 200 uM
reported property: apparent KD of MS2 coat protein (nM)
Respond numerically; units are nM and should not be typed.

Solved cases (2 shown):
{"columns": ["sequence record", "apparent KD of MS2 coat protein (nM)"],
 "data": [
  ["ACUUACUGAGGAUAUACAUAGAUUUACAUGAGGAUCACCCAUGUUCCUCUAAGUAUAUAUGUAGAAGGCAGAAGGG [Mat - Exclusion 5 - JL Mod - D41] (Eterna round: R97, puzzle: Exclusion 5)", 55.6],
  ["AAUAAUAAUGUCAGGAUAUCUAGAGCUGCGGCUCUAGAGAAGGGACAUGAGGAUCACCCAUGUCACUCAAUAAU [BmEx4/3-C5] (Eterna round: R97, puzzle: Brourd's mod of Exclusion 4)", 22]
]}

Kindly review the next sequence as well.
Lookup result for AGGUGUAGAGGAUAUUCAUUCUUCCACAUGAGGAUCACCCAUGUCCCGGUCACCAGGGACGGAGAAGGCUACACCA [Omei Ex5 D26] (Eterna round: R97, puzzle: Exclusion 5) ; measured apparent KD of MS2 coat protein: 108

---

# Tested on: MS2 coat protein
# protocol details: apparent KD of MS2 coat protein; designed switch direction (-1 OFF switch, 1 ON switch): -1; higher = weaker reporter binding
# test parameters: input ligand: FMN 200 uM
The entries below are paired with their reported apparent KD of MS2 coat protein.
Number first, unit second: that is the form wanted.

{"columns": ["sequence record", "tested target", "observed result"],
 "data": [
  ["GCUGGACAAGGAUAUGCAAUCGUGCUUCGGCACGUAAGAUCACAUGAGGAUCACCCAUGUAGAAGGUGUCCAGC [E2/3-C2] (Eterna round: R97, puzzle: Exclusion 2)", "MS2 coat protein", "62.5 nM"],
  ["CAAUAUUAUCGAGGAUAUCCUAUUGUAUUUCUGGGAGAAGGCGGACUCAACAUGAGGAUCACCCAUGUAAGACGGGUACUAGAU [Ex NG1 #20] (Eterna round: R96, puzzle: Exclusion NG 1)", "MS2 coat protein", "119 nM"]
]}

Would you kindly look at the next entry?
Lab entry: MS2 coat protein assay, sequence CCAAGCUUAUUCAUUAACCACAUGAGGAUCACCCAUGUCUAGGCAAUUAUGACUGGCCCAUCUGGUGCUCGUCUUAU [Sensor-V1 #31] (Eterna round: R97, puzzle: Sensor, turn-off variant 1) , apparent KD of MS2 coat protein = 20.9 nM
